target: human IgG1 (human); assay: SPR, BIAcore T200, IgG immobilised on CM5 chip; the text value differs from Table 1 (8.0)
pKd: −log10 of the molar value. Positions of bridges follow the written chain, without caps; N, C: chain ends. No end group written: not given here.
Metric Name: pKd

• GSGGSGPDCAYHRGELVWCTFH (disulfide 9-19 (inferred); not fully specified) [IgG-BP-LongGS, original IgG-binding peptide having a disulfide bond (GSGGS-…)] = 8.09
